Answer each item with its documented manual score.
# assay procedure: thallium influx changes without GIRK channels – cell-based, HEK-293 rmGlu8, no GIRK, thallium flux, counter-screen for GIRK activator project, confirmation (AID 623868);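 also: extra codes mark interference with 3 for fluorescent and 4 for baseline rise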
# run parameters: thallium flux fluorescence, at 10 µM, actives lie on both sides, codes: 1 enhancer, -1 blocker, 0 none, thallium stimulus containing EC20 glutamate
Out of some 2,100 compounds screened, about 760 (36%) were called active. A selection follows.
Numbers only.

[[record]]
compound = "Cn1c(=O)c(NCCO)c2c3c(cccc31)C(=O)c1ccccc1-2"
reported_endpoint = "manual score"
readout_value = 3

[[record]]
compound = "Cc1ccccc1Nc1nc2nonc2nc1N1CCOCC1"
reported_endpoint = "manual score"
readout_value = 0

[[record]]
compound = "COc1ccc(-n2nnnc2SCC(=O)N2CCOCC2)cc1"
reported_endpoint = "manual score"
readout_value = 0

[[record]]
compound = "CCOc1[nH]n(-c2ccc(Cl)cc2)c(=O)c1C=Nc1ccc(Cl)cc1"
reported_endpoint = "manual score"
readout_value = 0

[[record]]
compound = "Cc1ccccc1CNC(=O)Nc1cccs1"
reported_endpoint = "manual score"
readout_value = 0


Provide each entry's manual score from the list below.
1. COc1ccc2nc(/N=C/c3c(C)[nH]n(-c4ccc(C)cc4)c3=O)sc2c1
2. COc1ccc2nc(/N=C/c3c(C)[nH]n(-c4ccc(C)cc4C)c3=O)sc2c1
3. S=c1[nH]nc(-c2ccco2)n1/N=C/c1cccc(Cl)c1Cl
4. CCOC(=O)C1CCN(C(=O)CN(c2ccc(Cl)c(C(F)(F)F)c2)S(C)(=O)=O)CC1
5. Cc1c(N2C(=O)CS/C2=N\N=C\c2ccccc2O)c(=O)n(-c2ccccc2)n1C
6. CCCN(CCC)CCCNC(=O)c1cc2c(=O)n(C)c3ccccc3c2n1C

Output:
1: 1; 2: 1; 3: 1; 4: -1; 5: 0; 6: 0

Provide each entry's manual score from the list below.
1. Cc1ccc(N2C(=S)N=C(Nc3ccccc3C)C23CCOC(C)(C)C3)cc1 (centres undefined)
2. Cc1ccccc1C(=O)Nc1nc(=S)ss1
3. CCSc1nnc(NC(=O)C(Cc2ccccc2)n2cccc2)s1 (centres undefined)
4. CCn1c(SCc2nc(-c3ccccc3)no2)nc2ccccc21

Output:
[1, 1, 0, 0]

Provide each entry's manual score from the list below.
1. Cc1csc(NC(=O)C(Cc2ccccc2)n2cccc2)n1 (centres undefined)
2. Cc1ccc2oc(=O)c3cnn(CC(=O)N4CCc5ccccc5C4)c3c2c1
3. Cc1sc2c(c1C)CN(C1CC(C)(C)NC(C)(C)C1)CN2C(=O)c1ccco1
4. O=C(COc1ccc(Cl)cc1Cl)Nc1ccccn1
5. S=c1[nH]nc(-c2ccco2)n1/N=C/c1ccc(Cl)cc1Cl

Output:
0
-1
0
0
1

====

# assay procedure: thallium influx changes without GIRK channels – cell-based, HEK-293 rmGlu8, no GIRK, thallium flux, counter-screen for GIRK activator project, confirmation (AID 623868);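 also: extra codes mark interference with 3 for fluorescent and 4 for baseline rise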
# run parameters: thallium flux fluorescence, at 10 µM, actives lie on both sides, codes: 1 enhancer, -1 blocker, 0 none, thallium stimulus containing EC20 glutamate
Out of some 2,100 compounds screened, about 760 (36%) were called active.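 How the source made its calls: active means thallium-flux fluorescence traces judged by eye to show enhanced or reduced glutamate response, manual score 1 or -1, so both directions (some results past the limit were not filed as active); inactive means the rest, including fluorescent or raised-baseline compounds.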 Only a sample is shown.
Pick one: active, inactive

Previously resolved entries follow.
[[record]]
compound = "Cc1sc2nc(C(C)C)nc(SCC(=O)NCc3ccco3)c2c1C"
label = "active"

[[record]]
compound = "CN(C)CCCN1C(=O)c2oc3ccccc3c(=O)c2C1c1cccs1 (stereo unspecified)"
label = "active"

[[record]]
compound = "O=C(C1CCN(S(=O)(=O)c2cccc3cccnc23)CC1)N1CC=C(c2ccccc2)CC1"
label = "active"

[[record]]
compound = "O=c1c(O)c(-c2cccs2)oc2ccccc12"
label = "inactive"

[[record]]
compound = "CCn1c(SCC(=O)NC(=O)NCc2ccco2)nc2sc(C)c(C)c2c1=O"
label = "active"

[[record]]
compound = "O=C(C1CCCN1S(=O)(=O)c1cccc2cccnc12)N1CCn2c1nc1ccccc12 (stereo unspecified)"
label = "inactive"


Task: What classification did "CCCCCC/C(C)=C1/SC(=S)NC1=O" end up with in this test?
Output: active

Task: What classification did "CN(C)CCNC(=O)c1ccc2c(c1)N(Cc1ccc(F)cc1)CCS2" end up with in this test?
Output: inactive

Task: What classification did "COc1ccc(OCc2nc(N)nc(Nc3ccccc3)n2)cc1" end up with in this test?
Output: inactive

Task: What classification did N#CC(C#N)=C1C=C2C=C(N3CCCCC3)CCC2CC1 (stereo unspecified) end up with in this test?
Output: inactive

Task: What classification did "O=[n+]1cc(-c2ccccc2)n([O-])c2c1CCC2" end up with in this test?
Output: inactive

====

Answer each item with its documented manual score.
# assay procedure: thallium influx changes without GIRK channels – cell-based, HEK-293 rmGlu8, no GIRK, thallium flux, counter-screen for GIRK activator project, confirmation (AID 623868);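 also: extra codes mark interference with 3 for fluorescent and 4 for baseline rise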
# run parameters: thallium flux fluorescence, at 10 µM, actives lie on both sides, codes: 1 enhancer, -1 blocker, 0 none, thallium stimulus containing EC20 glutamate
Screen size: about 2,100 compounds; about 760 (36%) were called active. Only a sample is shown.
One number for each entry.

Examples with their reported manual score follow.
[[record]]
molecule = "COc1ccc(-c2nnc(NC(=O)c3ccc(S(=O)(=O)N4COCC4(C)C)cc3)o2)cc1"
readout_value = 1

[[record]]
molecule = "Cc1cccc(N2CCN(C(=O)c3ccc(Cl)c(S(=O)(=O)N4CCc5ccccc5C4)c3)CC2)c1C"
readout_value = 0

[[record]]
molecule = "Nc1c(C(O)(C(F)(F)F)C(F)(F)F)ccc2ccccc12"
readout_value = 0

[[record]]
molecule = "CCc1cc(C(=O)NNC(=S)Nc2ccccc2C)cs1"
readout_value = 1

[[record]]
molecule = "CCOc1ccc(-c2nnc(NC(=O)CCCOc3cccc(C)c3)o2)cc1"
readout_value = 0

[[record]]
molecule = "COc1ccc(-c2nnc(NC(=O)c3ccc(S(=O)(=O)N4CCc5ccccc5C4)cc3)o2)cc1"
readout_value = 1


Provide each entry's manual score from the list below.
1. Cc1ccc(C)c(OCC(O)CN2C(C)CCCC2C)c1 (stereo not drawn)
2. COc1ccc(/C=C2\N=C(SC)NC2=O)cc1
3. Cc1ccc(Cl)cc1NC(=S)NCc1cccn1C
4. Cc1ccc(C2CC2C(=O)NNC(=S)Nc2cccc(C)c2)cc1 (stereo not drawn)
5. CCOc1ccc(-c2nc(-c3ccc(OC)c(OC)c3)no2)cc1OCC
6. CCOc1cc(C(=O)NCc2ccncc2)cc(OCC)c1OCC

Output:
1. 0
2. 1
3. 0
4. 1
5. 0
6. 0

Provide each entry's manual score from the list below.
1. CCCCn1c(=O)[nH]c2nc3cc(N)ccc3nc2c1=O
2. Cc1ccc(C2CC2C(=O)NNC(=S)Nc2ccc(Cl)cc2)cc1 (stereo not drawn)
3. C=CCSc1nc2sc3c(c2c(=O)n1CC)CCc1ccccc1-3
4. Cc1ccc(C2CC2C(=O)NNC(=S)Nc2cccc(Cl)c2)cc1 (stereo not drawn)
5. C=CCn1c(=O)c2c(C)c(C)sc2n2c(Nc3ccc(OC)cc3)nnc12
6. CCCCn1c(SCC(=O)Nc2ccc(OC)cc2)nc2ccc(N3CCOCC3)cc2c1=O
7. CCn1c(NC(=O)Nc2cccc(C)c2C)cc2sccc21
8. CCn1c(SCC(N)=O)nc2c(c1=O)C1(CCCC1)Cc1ccccc1-2

Output:
1. 3
2. 0.5
3. 1
4. 0
5. -1
6. 0
7. 0
8. 0

Provide each entry's manual score from the list below.
1. COc1ccc(Nc2nc(N)nc(CSc3nnc(C)s3)n2)cc1
2. CCOc1ccc(OCCSc2nc3ccccc3[nH]2)cc1

Output:
[0, 0]

Notebook: "N#C/C(=C/C=C/c1ccccc1)C(=O)Nc1ccccc1" , manual score read as 0

====

# assay procedure: thallium influx changes without GIRK channels – cell-based, HEK-293 rmGlu8, no GIRK, thallium flux, counter-screen for GIRK activator project, confirmation (AID 623868);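 also: extra codes mark interference with 3 for fluorescent and 4 for baseline rise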
# run parameters: thallium flux fluorescence, at 10 µM, actives lie on both sides, codes: 1 enhancer, -1 blocker, 0 none, thallium stimulus containing EC20 glutamate
About 760 (36%) of roughly 2,100 compounds were called active. The list is a sample of the results.
Answer each item with its documented manual score.
Answers are plain numbers.

[[record]]
molecule = "COC(=O)C(C)N(C(=O)c1cccc(Cl)c1)c1c(C)cccc1C (stereo not drawn)"
readout_value = -1

[[record]]
molecule = "O=C(Oc1c(Cl)cc(Cl)c2cccnc12)c1cccc([N+](=O)[O-])c1"
readout_value = 1

[[record]]
molecule = "O=C(NC(=S)Nc1ccc(N2CCOCC2)cc1)c1ccco1"
readout_value = 1

[[record]]
molecule = "COC(=O)c1cc(CSc2nc3ccc(C)cc3[nH]2)oc1C"
readout_value = -1

[[record]]
molecule = "COC(=O)[C@H]1CCCN1C(=O)Nc1cccc(Oc2c(F)c(F)c(F)c(F)c2F)c1"
readout_value = 0

[[record]]
molecule = "O=C(O)c1oc2ccccc2c1CSc1ccccn1"
readout_value = 0


Provide each entry's manual score from the list below.
1. O=C(NC(=S)Nc1ccccc1N1CCOCC1)c1ccco1
2. O=C(NCc1ccccc1)C(=O)Nc1nc(C23CC4CC(CC(C4)C2)C3)cs1
3. Cc1noc(C)c1CSc1nc2ccccc2c(=O)n1-c1ccc(F)cc1F
4. CC1CCN(c2ccccc2NC(=S)NC(=O)c2ccco2)CC1
5. C=CCN(CC=C)S(=O)(=O)c1ccc(NC(=S)NC(=O)c2ccco2)cc1
6. Cc1ccc(CSc2nc3ccncc3[nH]2)cc1

Output:
1. 1
2. 0
3. 0
4. 1
5. 0.5
6. 0

Provide each entry's manual score from the list below.
1. O=C(Oc1ccccc1C(=S)N1CCCCC1)c1cc([N+](=O)[O-])cc([N+](=O)[O-])c1
2. O=C(NCCSCc1ccco1)Nc1cccc(Cl)c1
3. O=C(NC(=S)Nc1ccccc1N1CCCCC1)c1ccco1
4. COc1ccc(CC(=O)Nc2cc(=O)n(C)c(=O)n2C)cc1

Output:
0
0
0
0

Provide each entry's manual score from the list below.
1. O=C(CSc1nc2ccc(Cl)cc2[nH]1)Nc1ccc2c(c1)CCC2
2. CC1(C)Cc2ccccc2C(/C(=N\Nc2cccc(Cl)c2)C(N)=O)=N1
3. Cn1nc(C(F)(F)F)c2cc(NC(=O)OCc3ccc(F)cc3)sc21
4. CCCCCCCC1CC(CSc2ncn[nH]2)OC1=O (stereo not drawn)
5. COc1ccc(OCC(=O)NC(=S)Nc2ccc(N3CCOCC3)c(Cl)c2)cc1
6. COC(=O)C(C)N(C(=O)c1cccc2ccccc12)c1c(C)cccc1C (stereo not drawn)
7. O=C(Nc1ccc(F)cc1)c1cccnc1N1CCOCC1

Output:
1. 0
2. 0
3. 0
4. 0
5. 0
6. -1
7. 0
